Label satisfied when logP is at or above 2; otherwise label not satisfied.

Textbook exercise: given the entry CCC(C)c1ccc(OC(=O)N(C)C)cc1 (stereo not given) , state whether its logP is greater than or equal to 2.
satisfied

# check: logP of `CNC(=O)Oc1cccc(N(C)C)c1` is greater than or equal to 2
not satisfied

Decide: logP of `Cc1ccc(OC(=O)N(C)C)cc1` >= 2?
satisfied

Hello, I need to know if `CCOc1ccc(OC(=O)NC)cc1` has measured logP not below 2. Thanks!
not satisfied

For this compound, is measured logP 2 or higher? `CNC(=O)Oc1cccc(I)c1`
satisfied

Kindly determine if logP recorded for `CNC(=O)Oc1ccc(F)cc1` is above or exactly 2.
not satisfied

Given the entry `CNC(=O)Oc1cccc(OC)c1` , answer whether its logP meets or surpasses 2.
not satisfied

Decide: logP of `CNC(=O)Oc1cccc(C#N)c1` >= 2?
not satisfied

// inclusive: logP at least 2? input: `CNC(=O)Oc1ccc(C)cc1`
not satisfied

Textbook exercise: given the entry `CCc1ccc(OC(=O)N(C)C)cc1` , state whether its logP is greater than or equal to 2.
satisfied

Hi, just wondering whether `CN(C)C(=O)Oc1cccc(Cl)c1` shows logP of 2 or higher.
satisfied

Check if logP >= 2 (inclusive). Item: `CN(C)C(=O)Oc1ccc(Cl)cc1`
satisfied

Is reported logP greater than or equal to 2 here: `CC(C)c1ccc(OC(=O)N(C)C)cc1`
satisfied

Identify whether the reported logP of the following compound is 2 or greater: `CCOc1cccc(OC(=O)NC)c1`
not satisfied

Determine whether measured logP meets or exceeds 2 for `CN(C)C(=O)Oc1ccc([N+](=O)[O-])cc1`
not satisfied

Would you say `CCc1cccc(OC(=O)NC)c1` shows logP at minimum 2?
satisfied

Check this compound for logP at or above 2: `CNC(=O)Oc1ccc(OC)cc1`
not satisfied

Does logP meet or surpass 2 for `CNC(=O)Oc1ccc(I)cc1` ?
satisfied

Dear colleague, could you confirm whether `CC(=O)c1ccc(OC(=O)N(C)C)cc1` has logP at or above 2?
not satisfied

Is logP at least 2? Consider `CN(C)C(=O)Oc1ccc(F)cc1`
not satisfied

Could you tell me if the measured logP of `CNC(=O)Oc1cccc(C(C)=O)c1` reaches 2 or more?
not satisfied

Entry `CNC(=O)Oc1cccc(C)c1` : is its logP no less than 2?
not satisfied

Does the compound `CCc1ccc(OC(=O)NC)cc1` have recorded logP that is 2 or more?
satisfied

Test whether the compound `CCC(=O)c1cccc(OC(=O)NC)c1` records logP of 2 or higher.
not satisfied

Does `CNC(=O)Oc1cccc([N+](=O)[O-])c1` have a reported logP of at least 2?
not satisfied
